- TGT: T1, human BLyS (full length, arginine to histidine at position 132) on CHO-K1 cells (human, UniProt Q9Y275 1-285)
- T1 construct: also called hBLyS; CHO-K1 hBLyS
- ASSAY SUMMARY: flow cytometry, CHO-K1 hBLyS cells, antibody 0.534 nM
Parameter: MFI. Scope: all listed entries.
The reply should be a number in MFI, with the unit left off.

// known answers, use as guide
BINDER	OBSERVED VALUE
35E6F7C3 (antibody, V domains shown, Mouse hybridoma monoclonal antibody purified on Protein G) VH: EVQLQQSGAELVKPGASVKLSCTAAGFNIQDTYIHWVKQRPEQGLEWIGRIDPANANTVYDPKFQGKATITADTSSNTAYLQVSSLTSEDTAVYYCASPVITAGFAYWGQGTLVTVSA VL: QIVLTQSPAIMSASPGEKVTMTCGASSSVNYVHWYQQKSGTSPKRWIYDTSKLASGVPARFSGSGSGTSYSLTISSMEAEDAATYYCQQWTRSPLTFGAGTKVELK	247
L1D12 (antibody, V domains shown, From a human naive scFv phage library; also called human BLyS antibody L1D12; LID12) VH: QVQLVQSGGGLVQPGGSLRLSCAASGFTVSSNYMSWVRQAPGKGLEWVSVIYSGGSTYYADSVKGRFTISRDNSKNTLYLQMNSLRAEDTAVYYCARGFHDILTGYGMDVWGQGTTVTVSS VL: SSELTQDPAVSVALGQTVRITCQGDSLRNYYAGWYQQKPGQAPVLVIYGKNNRPSGIPDRFSGSSSGNTASLTITGTQAEDEADYYCSSRDNSGTHLVEFGGGTKLTVL	413
89A2G5E7 (antibody, V domains shown, Mouse hybridoma monoclonal antibody purified on Protein G) VH: QVQLKESGPGLVAPSQSLSITCTVSGLSLNSHDISWIRQPPGKGLEWLGVIWSGGGTKYNSAFMSRLSISKDNSKSQVFLKMNSLHTDDTAIYYCVRTPSMITYSAMDYWGQGTSVTVSS VL: EIVLTQSPALMAASPGEKVTITCSVSSSISSRNLHWYQQKSQTSPKAWIHATSNLASGVPVRFSGSGSGTSYSLTISSMEAEDAATYYCQQWSSYPLTFGSGTKLEIK	192
111D10D6G3 (antibody, V domains shown, Mouse hybridoma monoclonal antibody purified on Protein G) VH: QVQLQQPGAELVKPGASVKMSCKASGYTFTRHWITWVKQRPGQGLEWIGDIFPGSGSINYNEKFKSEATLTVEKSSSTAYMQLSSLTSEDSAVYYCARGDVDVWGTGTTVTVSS VL: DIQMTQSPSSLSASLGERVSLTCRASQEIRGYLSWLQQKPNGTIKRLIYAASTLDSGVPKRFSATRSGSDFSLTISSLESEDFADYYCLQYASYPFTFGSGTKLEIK	247

Lookup: Specify reported MFI for the binder shown: 8E7D9C7F5 (antibody, V domains shown, Mouse hybridoma monoclonal antibody purified on Protein G) VH: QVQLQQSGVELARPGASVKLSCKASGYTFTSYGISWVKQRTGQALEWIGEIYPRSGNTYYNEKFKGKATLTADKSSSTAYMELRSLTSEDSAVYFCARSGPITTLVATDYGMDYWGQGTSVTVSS VL: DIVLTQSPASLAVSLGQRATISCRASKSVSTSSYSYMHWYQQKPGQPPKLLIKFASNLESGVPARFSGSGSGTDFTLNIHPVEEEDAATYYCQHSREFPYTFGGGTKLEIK
Found: 504
